Values from patent US9056835B2

# study target: LPA3 (Homo sapiens, UniProt Q9UBY5)
# Construct: expressed in transfected cells
# Sequence (Q9UBY5 1-353): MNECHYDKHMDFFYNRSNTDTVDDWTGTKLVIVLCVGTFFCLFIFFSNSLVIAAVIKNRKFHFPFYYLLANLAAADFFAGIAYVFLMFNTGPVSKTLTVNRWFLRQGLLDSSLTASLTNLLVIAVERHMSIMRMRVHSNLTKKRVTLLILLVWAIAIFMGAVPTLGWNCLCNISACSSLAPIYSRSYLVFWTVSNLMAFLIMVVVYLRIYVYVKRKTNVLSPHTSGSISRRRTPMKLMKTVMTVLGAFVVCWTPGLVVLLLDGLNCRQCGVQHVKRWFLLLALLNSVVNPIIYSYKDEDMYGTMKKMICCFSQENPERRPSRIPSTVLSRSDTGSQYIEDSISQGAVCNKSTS
# test method notes: LPA receptor-mediated Ca2+ mobilization assay, LPA3
# Assay type: cell-based
# conditions used: antagonist, Ca2+ mobilization; read-out: LPA3 K
property name: pKi
Schema: pKi number; meaning minus log10 of the concentration expressed in molar units.

Entry O=C(O)c1ccccc1C(=O)Nc1ccc2c(c1)C(=O)c1ccccc1C2=O — recorded pKi = 5.82
